Data origin: patent US20170296617A1

# subject of test: T1, ROCK1 (UniProt Q13464 1-553, limits assumed)
# T1 construct: also called Rho-associated kinase 1; p160ROCK
# procedure summary: SPR (BiaCore), protein immobilized on CM-5 chip, peptide as analyte; the sheet does not say whether ROCK-I is ROCK1-553 or ROCK1-415
No end group written: not given here. TAT = TAT cell-penetrating sequence fused at N-terminus
measurement label: Kd (nM)
Give the number; nM is assumed, so skip it.

Need Kd of {TAT}-ERTYSPSTAVRS (Synthetic peptide added to the cell culture medium) [TATpeptide25 (peptide25 with the TAT sequence fused at its N-terminal end)] , thanks.
1450
